Test system: RBM10 RRM1-ZnF-RRM2 (GST-tagged construct);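 also: 20 pmol protein with 1.5 nmol RNA pool for 30 min at 4°C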
Assay: RNAcompete 7-mer binding Z-score; higher = stronger binding preference
The full ranking holds about 16,000 sequences; the median of “Z-score” is about -0.37, and the highest 2% start at about 3.1. The full list was thinned out, with the highest values kept by preference.
The entries below come with measured RNAcompete 7-mer binding Z-score values attached.
# respond with the number and nothing more

INSERT INTO assay_data (record_sequence, recorded_value) VALUES
  ('CGAAAGG', 1.98);

Measured RNAcompete 7-mer binding Z-score (RBM10 RRM1-ZnF-RRM2 (GST-tagged construct)), entry CGUAAUC : -0.511

Simply: GAAAGGU , RBM10 RRM1-ZnF-RRM2 (GST-tagged construct), RNAcompete 7-mer binding Z-score = 4.42

Observed RNAcompete 7-mer binding Z-score on RBM10 RRM1-ZnF-RRM2 (GST-tagged construct), entry UUUGACG , equals -0.551

Entry UGGUAGA , tested on RBM10 RRM1-ZnF-RRM2 (GST-tagged construct), has a reported RNAcompete 7-mer binding Z-score of 1.89

Field RNAcompete 7-mer binding Z-score (RBM10 RRM1-ZnF-RRM2 (GST-tagged construct)), entry UGGUUGA : 1.31

Short answer on RBM10 RRM1-ZnF-RRM2 (GST-tagged construct) for CAAAGGU , RNAcompete 7-mer binding Z-score: 1.62
